Values were extracted from patent US20050226813A1.

Molecular target: T1, human cloned SST-R2 (human, UniProt P30874 1-369)
T1 construct: whole, on cells; Assayed as membrane preparations of CHO cells expressing the cloned receptor, not as intact cells; also called hSST-R2; human SST-R2
T1 sequence (P30874 whole entry): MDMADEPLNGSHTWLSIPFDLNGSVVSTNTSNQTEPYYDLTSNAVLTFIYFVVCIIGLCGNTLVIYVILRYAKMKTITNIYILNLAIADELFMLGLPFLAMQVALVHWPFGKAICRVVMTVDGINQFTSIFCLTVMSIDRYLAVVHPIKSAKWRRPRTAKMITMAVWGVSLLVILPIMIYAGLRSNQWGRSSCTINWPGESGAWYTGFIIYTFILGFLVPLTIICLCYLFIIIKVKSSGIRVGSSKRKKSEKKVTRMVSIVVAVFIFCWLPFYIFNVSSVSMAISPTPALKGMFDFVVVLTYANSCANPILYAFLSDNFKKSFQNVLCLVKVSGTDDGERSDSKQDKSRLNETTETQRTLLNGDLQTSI
Assay: inhibition of 125I-Tyr11-SRIF-14 binding to membranes of CHO cells expressing cloned human SST-R2
Description: The SST analogs were tested for their potency in inhibition of the binding of ¹²⁵I-Tyr¹¹-SRIF (based on the method described by Raynor et. al., Molecular Pharmnacology 43: 838, 1993) to membrane preparations expressing the transmembranal SST receptors (SST-R1, 2, 3, 4 or 5). […] The binding reactions were filtered, the filters were washed and the bound radioactivity was counted in β counter after addition of scintillation colution. […]
// values below are reported pIC50
Value format note: pIC50 is -log10 of concentration (mol/L); just state the number.

CXFWWKTFG (L-Cys at 1; beta-Ala at 2 (written X); D-Trp at 5; GlyN6 building unit at 9 with D-Cys on its omega-amine; C-terminal amide; ReO (oxorhenium(V)) chelated by the two Cys closes the ring, also called ReO-GF-06; ReO-LCys*-βAla-Phe-Trp-DTrp-Lys-Thr-Phe-GlyN6(DCys*)-NH2) [ReO-GF-6]
8.28
CFWWKTFG (not fully specified; L-Cys at 1; D-Trp at 4; GlyN3 building unit at 8 with L-Cys on its omega-amine; C-terminal amide; ReO (oxorhenium(V)) chelated by the two Cys closes the ring, also called ReO-LCys*-Phe-Trp-DTrp-Lys-Thr-Phe-GlyN3(LCys*)-NH2) [ReO-GF-29]
8.70

Turning now to a further binder:
Lab book: pIC50 of CXFWWKTFG (D-Cys at 1; beta-Ala at 2 (written X); D-Trp at 5; GlyN2 building unit at 9 with L-Cys on its omega-amine; C-terminal amide; ReO (oxorhenium(V)) chelated by the two Cys closes the ring) [ReO-GF-39] noted as 8.00
